test: Oral bioavailability in rat; format: ADME, organism-based; settings: in vivo
measureName: bioavailability (%)
Reply with just the number (in %).

Check the records and state bioavailability for CCCCc1nn(CC2CC2)c(C(=O)O)c1Cc1ccc(-c2ccccc2-c2nn[nH]n2)cc1 58

Check the records and state bioavailability for CCCCc1nn(CCCC)c(C(=O)O)c1Cc1ccc(-c2ccccc2-c2nn[nH]n2)cc1 26

###

assay: Compound was evaluated for volume of distribution in rat; format: ADME, organism-based; settings: in vivo
measureName: Vd (L/kg)
Reply with just the number (in L/kg).

Check the records and state Vd for CCCCc1nn(CCCC)c(C(=O)O)c1Cc1ccc(-c2ccccc2-c2nn[nH]n2)cc1 0.16

Check the records and state Vd for CCCCc1nn(CC2CC2)c(C(=O)O)c1Cc1ccc(-c2ccccc2-c2nn[nH]n2)cc1 0.2
